molecular target: human melanocortin-4 receptor (human, UniProt P32245 1-332); assay: cell-based or functional assay
Sequence (P32245 whole entry): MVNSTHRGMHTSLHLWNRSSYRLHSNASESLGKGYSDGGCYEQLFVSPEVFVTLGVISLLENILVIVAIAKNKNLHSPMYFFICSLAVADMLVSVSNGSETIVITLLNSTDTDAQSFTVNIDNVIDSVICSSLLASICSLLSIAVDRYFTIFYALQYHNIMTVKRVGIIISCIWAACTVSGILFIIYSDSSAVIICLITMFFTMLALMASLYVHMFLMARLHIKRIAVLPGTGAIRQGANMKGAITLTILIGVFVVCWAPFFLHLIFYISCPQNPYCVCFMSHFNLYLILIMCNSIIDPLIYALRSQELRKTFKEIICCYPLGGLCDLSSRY
Positions of bridges follow the written chain, without caps; N, C: chain ends. Non-standard residues stand in square brackets, D forms with d. dPhe(4-CN) = N#Cc1ccc(C[C@@H](N)C(=O)O)cc1; dPhe(2-Cl) = N[C@H](Cc1ccccc1Cl)C(=O)O; Orn = NCCC[C@H](N)C(=O)O
// NB: equality with 0.5 nM counts as Criterion not met; only EC50, cAMP, 10 ng/mL Doxycycline strictly below is Criterion met

A selection of reference data follows.
binder="Ac-RET[dPhe(4-CN)]RW[Orn]-NH2 (lactam 2-7; SMILES CC(=O)N[C@@H](CCCNC(=N)N)C(=O)N[C@H]1CCC(=O)NCCC[C@@H](C(N)=O)NC(=O)[C@H](Cc2c[nH]c3ccccc23)NC(=O)[C@H](CCCNC(=N)N)NC(=O)[C@@H](Cc2ccc(C#N)cc2)NC(=O)[C@H]([C@@H](C)O)NC1=O, also called No. 44) [Ac-Arg-cyclo(Glu-Thr-D-Phe(4-CN)-Arg-Trp-Orn)-NH2]" assigned_label="Criterion not met"
binder="Ac-REP[dPhe(2-Cl)]RW[Orn]-NH2 (lactam 2-7; SMILES CC(=O)N[C@@H](CCCNC(=N)N)C(=O)N[C@H]1CCC(=O)NCCC[C@@H](C(N)=O)NC(=O)[C@H](Cc2c[nH]c3ccccc23)NC(=O)[C@H](CCCNC(=N)N)NC(=O)[C@@H](Cc2ccccc2Cl)NC(=O)[C@@H]2CCCN2C1=O, also called No. 88) [Ac-Arg-cyclo(Glu-Pro-D-Phe(2-Cl)-Arg-Trp-Orn)-NH2]" assigned_label="Criterion met"
binder="Ac-REA[dPhe(4-CN)]RW[Orn]-NH2 (lactam 2-7; SMILES CC(=O)N[C@@H](CCCNC(=N)N)C(=O)N[C@H]1CCC(=O)NCCC[C@@H](C(N)=O)NC(=O)[C@H](Cc2c[nH]c3ccccc23)NC(=O)[C@H](CCCNC(=N)N)NC(=O)[C@@H](Cc2ccc(C#N)cc2)NC(=O)[C@H](C)NC1=O, also called No. 41) [Ac-Arg-cyclo(Glu-Ala-D-Phe(4-CN)-Arg-Trp-Orn)-NH2]" assigned_label="Criterion not met"
binder="Ac-REN[dPhe(4-CN)]RW[Orn]-NH2 (lactam 2-7; also: acetate salt, acetate salt form; also called Ex 43) [Ac-Arg-cyclo(Glu-Asn-D-Phe(4-CN)-Arg-Trp-Orn)-NH2]" assigned_label="Criterion met"
binder="Ac-RET[dPhe(2-Cl)]RW[Orn]-NH2 (lactam 2-7; SMILES CC(=O)N[C@@H](CCCNC(=N)N)C(=O)N[C@H]1CCC(=O)NCCC[C@@H](C(N)=O)NC(=O)[C@H](Cc2c[nH]c3ccccc23)NC(=O)[C@H](CCCNC(=N)N)NC(=O)[C@@H](Cc2ccccc2Cl)NC(=O)[C@H]([C@@H](C)O)NC1=O, also called No. 32) [Ac-Arg-cyclo(Glu-Thr-D-Phe(2-Cl)-Arg-Trp-Orn)-NH2]" assigned_label="Criterion not met"

Read the next record carefully.
In the record for Ac-RES[dPhe(4-CN)]RW[Orn]-NH2 (lactam 2-7; SMILES CC(=O)N[C@@H](CCCNC(=N)N)C(=O)N[C@H]1CCC(=O)NCCC[C@@H](C(N)=O)NC(=O)[C@H](Cc2c[nH]c3ccccc23)NC(=O)[C@H](CCCNC(=N)N)NC(=O)[C@@H](Cc2ccc(C#N)cc2)NC(=O)[C@H](CO)NC1=O, also called No. 45) [Ac-Arg-cyclo(Glu-Ser-D-Phe(4-CN)-Arg-Trp-Orn)-NH2] , is EC50, cAMP, 10 ng/mL Doxycycline less than 0.5 nM?
Criterion met
